Target: D2L receptor (Homo sapiens, UniProt P14416)
Construct: expressed in transfected cells; host or cells: HEK cells
Sequence (P14416 whole entry): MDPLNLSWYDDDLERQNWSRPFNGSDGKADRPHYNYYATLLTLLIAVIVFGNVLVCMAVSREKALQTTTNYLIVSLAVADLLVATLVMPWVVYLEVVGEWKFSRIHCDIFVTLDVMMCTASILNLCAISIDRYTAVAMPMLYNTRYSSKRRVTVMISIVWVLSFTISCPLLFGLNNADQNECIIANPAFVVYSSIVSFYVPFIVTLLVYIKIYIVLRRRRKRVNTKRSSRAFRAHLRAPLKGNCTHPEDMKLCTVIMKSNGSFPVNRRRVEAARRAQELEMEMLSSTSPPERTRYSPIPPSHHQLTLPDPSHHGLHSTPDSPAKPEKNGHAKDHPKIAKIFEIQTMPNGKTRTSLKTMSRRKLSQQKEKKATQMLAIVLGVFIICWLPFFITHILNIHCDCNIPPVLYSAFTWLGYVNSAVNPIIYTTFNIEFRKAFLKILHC
Assay: Inhibition constants for binding to cloned D2L receptor expressed in HEK cells, [3H]spiperone
pKi: −log10 of the molar value.
// thresholds for pKi classes: low = under 6, intermediate = from 6 up to 7, high = 7 and over

>>> df
                                   molecule  class_assignment
0  C#CCN(CCCCN1CCN(c2cccc(Cl)c2Cl)CC1)C1CCc2ccc(O)cc2C1 (stereo not drawn) [Compound 19b]              high
1  CCCN(CCN1CCN(c2ccccc2)CC1)C1CCc2ccc(O)cc2C1 (stereo not drawn) [Compound 15a]      intermediate
2  C#CCN(CCN1CCN(c2ccccc2)CC1)C1CCc2ccc(O)cc2C1 (stereo not drawn) [Compound 12a]      intermediate
3  CCCN(CCN1CCN(c2ccccc2)CC1)C1CCc2sc(N)nc2C1 (stereo not drawn) [Compound 25]               low
4  CCCN(CCCCN1CCN(c2cccc(Cl)c2Cl)CC1)C1CCc2ccc(O)cc2C1 (stereo not drawn) [Compound 19a]              high
5  O=C(NCCN(CCCCN1CCN(c2ccccc2)CC1)C1CCc2ccc(O)cc2C1)c1ccccc1 (stereo not drawn) [Compound 10b]      intermediate

This collection of values is drawn from patent US8227604B2.
